- target_entity: Brd4 bromodomain 1 (Homo sapiens, UniProt O60885)
- Construct: Illustrative results with the first bromodomain of Brd4; made in house; host or cells: E. coli BL21(DE3)
- procedure_summary: TR-FRET inhibition of tetra-acetylated histone H4 binding to Brd4 bromodomain 1
- experimental_setup: tetra-acetylated histone H4 peptide and Brd4 bromodomain 1, 2 hours at room temperature
property_label: FRET activity (<50 uM)

For orientation, consider the following solved cases.
compound: COc1cc(OC)c2c(=O)[nH]c(-c3cc(C)c(OCCNc4ccon4)c(C)c3)nc2c1 [Example 48]
FRET activity (<50 uM): Active

compound: Cc1cc(-c2nc3ccc(CNS(C)(=O)=O)cc3c(=O)[nH]2)cc(C)c1O [Example 11]
FRET activity (<50 uM): Active

compound: COc1cc(OC)c2c(=O)[nH]c(-c3ccc(OCCO)c4ccccc34)nc2c1 [Example 18]
FRET activity (<50 uM): Active

compound: COc1cc(OCCOCc2ccccc2)cc2nc(-c3ccc4oc(CO)cc4c3)[nH]c(=O)c12 [Example 21]
FRET activity (<50 uM): Inactive

compound: COc1cc(OC)c2c(=O)[nH]c(-c3cc(C)c(OCCNc4ncccn4)c(C)c3)nc2c1 [Example 47]
FRET activity (<50 uM): Inactive

compound: Cc1cc(-c2nc3cccc(Cl)c3c(=O)[nH]2)cc(C)c1OCCO [Example 27]
FRET activity (<50 uM): Inactive

Entry COc1cc(OC)c2c(=O)[nH]c(-c3cc(C)c(OCCNc4nc(C)no4)c(C)c3)nc2c1 [Example 30] , tested on Brd4 bromodomain 1 (Homo sapiens, UniProt O60885), has a reported FRET activity (<50 uM) of Active

====

- target_entity: Brd4 bromodomain 1 (Homo sapiens, UniProt O60885)
- Construct: Illustrative results with the first bromodomain of Brd4; made in house; host or cells: E. coli BL21(DE3)
- procedure_summary: TR-FRET inhibition of tetra-acetylated histone H4 binding to Brd4 bromodomain 1
- experimental_setup: tetra-acetylated histone H4 peptide and Brd4 bromodomain 1, 2 hours at room temperature
property_label: FRET activity (<50 uM)

Reference set (6 entries):
compound: COc1cc(OC)c2c(=O)[nH]c(-c3ccc(CCCO)c(OC)c3)nc2c1
target_entity: Brd4 bromodomain 1 (Homo sapiens, UniProt O60885)
FRET activity (<50 uM): Active
//
compound: COc1cc(OC)c2c(=O)[nH]c(-c3cc(C)c(OCCNC#N)c(C)c3)nc2c1
target_entity: Brd4 bromodomain 1 (Homo sapiens, UniProt O60885)
FRET activity (<50 uM): Active
//
compound: Cc1cc(-c2nc3cc(OCCN(C)C)ccc3c(=O)[nH]2)cc(C)c1O
target_entity: Brd4 bromodomain 1 (Homo sapiens, UniProt O60885)
FRET activity (<50 uM): Active
//
compound: Cc1cc(-c2nc3cc(F)cc(F)c3c(=O)[nH]2)cc(C)c1OCCO
target_entity: Brd4 bromodomain 1 (Homo sapiens, UniProt O60885)
FRET activity (<50 uM): Inactive
//
compound: Cc1cc(C)c2c(=O)[nH]c(-c3cc(C)c(OCCO)c(C)c3)nc2n1
target_entity: Brd4 bromodomain 1 (Homo sapiens, UniProt O60885)
FRET activity (<50 uM): Active
//
compound: COc1cc(OC)c2c(=O)[nH]c(-c3cc(OC)c(CCCO)c(OC)c3)nc2c1
target_entity: Brd4 bromodomain 1 (Homo sapiens, UniProt O60885)
FRET activity (<50 uM): Active

// sample `COc1cc(OC)c2c(=O)[nH]c(-c3cc(C)c(OCCNC(C)C)c(C)c3)nc2c1` , its FRET activity (<50 uM) was Active

// sample `Cc1cc(-c2nc3ccc(Nc4ccccn4)cc3c(=O)[nH]2)cc(C)c1O` , its FRET activity (<50 uM) was Inactive

// sample `Cc1cc(-c2nc3ccc(CN4CCN(C)CC4)cc3c(=O)[nH]2)cc(C)c1O` , its FRET activity (<50 uM) was Active

Value of FRET activity (<50 uM) reported for the compound `COc1cc(OC)c2c(=O)[nH]c(-c3cc(C)c(OCCNC=O)c(C)c3)nc2c1` is Active

Please fill in: FRET activity (<50 uM) reported for `COc1cc(OC)c2c(=O)[nH]c(-c3cc(C)c(OCCN(C)C(C)=O)c(C)c3)nc2c1` = Active

====

- target_entity: Brd4 bromodomain 1 (Homo sapiens, UniProt O60885)
- Construct: Illustrative results with the first bromodomain of Brd4; made in house; host or cells: E. coli BL21(DE3)
- procedure_summary: TR-FRET inhibition of tetra-acetylated histone H4 binding to Brd4 bromodomain 1
- experimental_setup: tetra-acetylated histone H4 peptide and Brd4 bromodomain 1, 2 hours at room temperature
property_label: FRET activity (<50 uM)

Example results:
compound: CNCCOc1c(C)cc(-c2nc3cc(OC)cc(OC)c3c(=O)[nH]2)cc1C
FRET activity (<50 uM): Active
//
compound: COc1cc(OC)c2c(=O)[nH]c(-c3cc(C)c(OCCCCO)c(C)c3)nc2c1
FRET activity (<50 uM): Active
//
compound: CNC(=O)COc1c(C)cc(-c2nc3cc(OC)cc(OC)c3c(=O)[nH]2)cc1C
FRET activity (<50 uM): Active
//
compound: COc1cc(OC)c2c(=O)[nH]c(-c3cc(C)c(OCC(O)CO)c(C)c3)nc2c1 (stereo not shown)
FRET activity (<50 uM): Active
//
compound: COc1cc(OC)c2c(=O)[nH]c(-c3cc(C)c(OCCNC(C)=O)c(C)c3)nc2n1
FRET activity (<50 uM): Active
//
compound: COc1cc(OC)c2c(=O)[nH]c(-c3cc(C)c(OCCNS(=O)(=O)N(C)C)c(C)c3)nc2c1
FRET activity (<50 uM): Active
//
compound: COc1cc(OC)c2c(=O)[nH]c(-c3cc(C)c(CNC(C)=O)c(C)c3)nc2n1
FRET activity (<50 uM): Active
//
compound: COc1ccc2c(=O)[nH]c(-c3cc(C)c(OCCO)c(C)c3)nc2c1
FRET activity (<50 uM): Inactive
//
compound: COc1cc(OC)c2c(=O)[nH]c(-c3cc(C)c(OCCNCC(F)(F)F)c(C)c3)nc2c1
FRET activity (<50 uM): Inactive
//
compound: COc1cc(OC)c2c(=O)[nH]c(-c3cc(C)c(OCCN(C)C)c(C)c3)nc2c1
FRET activity (<50 uM): Active

Then there is this compound:
Note to self: FRET activity (<50 uM) recorded for `COc1cc(OC)c2c(=O)[nH]c(-c3ccc(OCCNc4nnc(-c5ccccc5)[nH]4)c(C)c3)nc2c1` was Active

====

- target_entity: Brd4 bromodomain 1 (Homo sapiens, UniProt O60885)
- Construct: Illustrative results with the first bromodomain of Brd4; made in house; host or cells: E. coli BL21(DE3)
- procedure_summary: TR-FRET inhibition of tetra-acetylated histone H4 binding to Brd4 bromodomain 1
- experimental_setup: tetra-acetylated histone H4 peptide and Brd4 bromodomain 1, 2 hours at room temperature
property_label: FRET activity (<50 uM)

smiles_entry: Cc1cc(-c2nc3cc(Cl)ccc3c(=O)[nH]2)cc(C)c1OCCO
FRET activity (<50 uM): Inactive
--
smiles_entry: COc1cc(OCCN)cc2nc(-c3cc(C)c(O)c(C)c3)[nH]c(=O)c12
FRET activity (<50 uM): Active
--
smiles_entry: COc1cc(OC)c2c(=O)[nH]c(-c3cc(C)c(OCCOCc4ccccc4)c(C)c3)nc2n1
FRET activity (<50 uM): Inactive
--
smiles_entry: COc1cc(OCCOCc2cccnc2)cc2nc(-c3cc(C)c(O)c(C)c3)[nH]c(=O)c12
FRET activity (<50 uM): Active
--
smiles_entry: COc1cc(OC)c2c(=O)[nH]c(-c3cc(C)c(OCCNC=O)c(C)c3)cc2c1
FRET activity (<50 uM): Active

Consider the record given below.
Looking up `COc1cc(OC)c2c(=O)[nH]c(-c3cc(C)c(OCCN(C)C=O)c(C)c3)nc2c1` , I found its FRET activity (<50 uM) recorded as Active

Origin of the recorded values: patent US20130281398A1
